Test: folding stability dG unfold (combined trypsin and chymotrypsin); higher = more stable
measure: folding stability dG unfold (kcal/mol)

SAGMKIKIVKIEKEEDGTIRVELEITDPNGNKYRVEAEIDLKDPNKIKIKVINEDTGEEFEIELTIKKPSAG [r5_345_TrROS_Hall]	5.24
SASSMSLSFSVSLETDPEKGLLSTVTTTSTVTPYPDSVVTTTTVTTTVTPVPPGPPVVSPSATPVVALSSAG [r14_435_JUSTAS]	1.13
SAGGSAEPLVYELPDGTVVLLPPTTAVVYHRLSDGRVVVVGLEVDDPPDPEKALARARAVVEALPDSAGGSA [r15_748_TrMRF]	1.26
SAGGSAGGSAGMPEKVTLTFERSSEVFDPKLGKWRTLPSTEVVEFDSEEEAEELKEKLGLSAGGSAGGSAGG [r11_984_JUSTAS]	0.123
SAGGSAPPPGSTQVIVVEKRDAPPEEAAQEIADEIKEKYPNTSVEVQEEEVPPGEPVVRVTVYIPPSAGGSA [r15_916_JUSTAS]	0.559
SAGGSLKIKIRNPDGMPFKIDVVRYPNHIRIKFKFGNKPVAFMIDPESDTINFRIPGWPFQIEIEPSAGGSA [r2_194_TrROS]	3.26
SAGMETIEVPLPVEEIKEALDAGLSPEEIARLLAEETGEEVEIEVGGRKITITRNEDGELIVRIEVKPDSAG [r5_343_TrROS_Hall]	2.36
SAGGSAGGSAGGMRIRLENGEVIKIKNAKTKEELLNALKAIPGLKIEYDEETKELWIYRSAGGSAGGSAGGS [r10_792_TrROS_Hall]	2.22
SAGGMPKIVEIEILSEEYDPSTGVRTYTAKVTYPDGTEEVVTIPVDLTDGNATEEEVKKRVEELVLESAGGS [r16_221_JUSTAS]	3.76
SAGGTFQVKDPNGKQKPVQLRVRITFEFKGGDKQTFEIEVEGATVDDLREFANSLMNKGFKPVSIEIWSAGG [r13_227_TrROS]	1.88
SAGGSADPDDKEQKIKVEIETYRLEDNGMEVTRIELEGHGMPIYIARFPDGRMFIFTANGELEQIPSAGGSA [r15_617_TrROS]	2.41
SLEVAAELGLSVSSLEELETDPEKGTRLLRLTAPTPGATVEVLVEVTTRKDSKGETVPEVRVLAVRTVAPSA [r9_613_JUSTAS]	1.26
SAGGYLVRIEMPNGREHEYPVKDIDDAASRFRDHLGFPPNMKLKVEVYDPKDGEKKERTLTIPMPKPKSAGG [r13_145_TrROS]	0.378
SAGGGVTITLKTADGKTLTLEIPGLTSVTVEPDKVTVEFEIPDYRITITFNPSTGTVEIKISHPDEPESAGG [r13_392_TrMRF]	3.8
SAGGIEELAKALGIEEVEVTSIDPETREVTVRVRVRGPDGEERTLTVKIRLEPAPPPVRTFSEEELKSSAGG [r13_608_TrROS_Hall]	1.45
SAGGSAGGSAGGMKVKAYIFENGKLKEIELSEEELKELLKKLPNARILIEVDGKKLELPASAGGSAGGSAGG [r7_188_TrROS_Hall]	3.51
SAMEIEKIEIEKEEVNGKLYYRIRVKIINKETGKEIELELEFKSLEDALEALKKLPNITRVEITEIEPVSAG [r14_464_TrROS_Hall]	4.93
SAMVIPAEVRLPGTPEEVLEKAREFADTLAARFRELGFEVVAVELEEIEPGEAVVRLRIVVARPDEEFPSAG [r14_973_TrMRF]	2.85
SAMKYTITVKGDIESVRNFLLDKLDFDIEVSSTPDGTTVITITMDEEKVSELKELLKAHPNFPTTVNKESAG [r14_521_JUSTAS]	3.83
SAGGNIKVRREPRPNGQYRVKITIPDPDGKPIEIEYRMPPGMDSPEQAQKEAIEVVKEFAKKHNIKISAGGS [r8_464_TrROS]	0.605
SARVYRLPDGRLVRFEPVPPRPPVIVIPVDFRISPDDPETRRRLAEEIRRRLLEELGLPEDTPIFVDPSSAG [r14_453_TrMRF]	4.16
SAGGSAGGSPSEEARKKGGLTLTITLRYPDGSTVTITYPVSTPLTIPEEFAKNPPKIESIELSSAGGSAGGS [r12_161_JUSTAS]	1.34
SAGGTIYIWFPMKVDEAVDLAKELAENKDWKIEIYNGGKEHEIELDKIEPVPPENVRVYIEIEPKPDSAGGS [r16_628_TrROS]	1.26
SAGGSAGGEIEILPGAKIVRVERRKDGSLLIVVEVDGKLYLFRFKDGKVEVIELPEGASLEELLSAGGSAGG [r6_680_TrROS_Hall]	4.92
SAGGEMVEIVVKFKTKEELEAAIRAALPPGATVEVTVEEKDGELYLTITVPKENAERLREALKKALESAGGS [r16_43_TrROS_Hall]	4.57
